Please respond with reported Emax for every item in the list.
Target: M4 muscarinic receptor (Homo sapiens, UniProt P08173)
Construct: expressed in transfected cells; host or cells: CHO (M4-CHO)
Sequence (P08173 1-479): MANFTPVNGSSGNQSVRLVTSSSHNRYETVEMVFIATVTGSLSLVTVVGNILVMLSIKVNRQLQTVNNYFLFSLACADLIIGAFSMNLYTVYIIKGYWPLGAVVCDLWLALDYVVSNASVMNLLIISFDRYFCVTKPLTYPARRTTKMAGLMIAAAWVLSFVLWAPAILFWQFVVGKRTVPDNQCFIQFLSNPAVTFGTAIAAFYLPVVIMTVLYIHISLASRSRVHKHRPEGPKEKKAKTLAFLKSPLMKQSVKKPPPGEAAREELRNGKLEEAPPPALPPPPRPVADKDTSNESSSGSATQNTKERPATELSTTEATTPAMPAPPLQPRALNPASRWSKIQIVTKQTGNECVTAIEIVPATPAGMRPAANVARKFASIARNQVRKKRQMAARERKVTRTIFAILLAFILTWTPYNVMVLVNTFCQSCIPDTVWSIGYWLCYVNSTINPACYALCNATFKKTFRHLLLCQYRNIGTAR
Test: Functional mobilization of intracellular calcium (FLIPR) in M4-CHO cells
Type: cell-based
Settings: Table 4; 100% efficacy is the maximum response obtained with the Carbachol control

Recorded results for 4 molecules are shown here.
molecule="CC#CCOC(=O)N1CCC(N2CCC3(CC2)CN(C(C)=O)c2ccccc23)CC1 [compound 672]" tgt="M4 muscarinic receptor (Homo sapiens, UniProt P08173)" reading="25 to 100%"
molecule="CCOC(=O)N1CC[C@@H](CN2CCC3(CC2)CN(C(=O)N(C)C)c2ccc(F)cc23)C1 [compound 974]" tgt="M4 muscarinic receptor (Homo sapiens, UniProt P08173)" reading="25 to 100%"
molecule="CN(C)C(=O)N1CC2(CCN(C[C@@H]3CCN(c4nccs4)C3)CC2)c2cc(F)ccc21 [compound 570]" tgt="M4 muscarinic receptor (Homo sapiens, UniProt P08173)" reading="25 to 100%"
molecule="CCOC(=O)N1CCC(N2CCC3(CC2)CN(C(=O)C2(O)CC2)c2ccc(F)cc23)CC1 [compound 543]" tgt="M4 muscarinic receptor (Homo sapiens, UniProt P08173)" reading="25 to 100%"

Provide each entry's Emax from the list below.
1. COC(=O)N1CCC(N2CCC3(CC2)CN(C(C)=O)c2ccc(F)cc23)C1 (centres unmarked) [compound 771]
2. CC(=O)N1CC2(CCN(C3CCN(c4cncc(C5=CCCC5)n4)CC3)CC2)c2ccccc21 [compound 975]
3. COCC(=O)N1CCC(N2CCC3(CC2)CN(C(=O)N(C)C)c2ccc(F)cc23)CC1 [compound 674]

Marked response:
< 25%
< 25%
25 to 100%

Provide each entry's Emax from the list below.
1. CC(=O)N1CC2(CCN(C3CCN(c4nncs4)CC3)CC2)c2ccccc21 [compound 973]
2. CCOC(=O)N1CCC(N2CCC3(CC[C@H](NC(C)=O)c4ccccc43)CC2)CC1 [compound 537]
3. CN(C)C(=O)N1CC2(CCN(C3CCN(C(=O)c4ccncc4)CC3)CC2)c2cc(F)ccc21 [compound 791]
4. CCC(=O)N1CCC(N2CCC3(CC2)CN(C(=O)N(C)C)c2ccc(F)cc23)CC1 [compound 464]
5. CN(C)C(=O)N1CC2(CCN(C[C@H]3CCN(c4cnccn4)C3)CC2)c2cc(F)ccc21 [compound 660]
6. CC(=O)N1CC2(CCN(C3CCN(C(=O)OC4CCOC4)CC3)CC2)c2ccccc21 (centres unmarked) [compound 932]
7. CC(=O)N1CC2(CCN(CC3CCN(C(=O)O[C@@H]4CCOC4)CC3)CC2)c2cc(C)ccc21 [compound 550]

Marked response:
1: < 25%; 2: 25 to 100%; 3: < 25%; 4: 25 to 100%; 5: > 100%; 6: < 25%; 7: < 25%

Provide each entry's Emax from the list below.
1. CCOC(=O)N1CCC(N2CCC3(CC2)CN(C2CCC4(CC2)OCCO4)c2ccccc23)CC1 [compound 513]
2. CCC(C)(C)C1CCC(N2CCC3(CC[C@H](NC(C)=O)c4ccccc43)CC2)CC1 (some centres unmarked) [compound 624]
3. COc1cc2c(cc1OC)C1(CCN(C3CCCCCCCCCCC3)CC1)C[C@@H]2NC(C)=O [compound 599]
4. CCOC(=O)N1CCC(N2CCC3(CC2)CN(c2ccccn2)c2ccc(F)cc23)CC1 [compound 585]
5. C1=CC2CC1CC2CN1CCC2(CCCc3ccccc32)CC1 (centres unmarked) [compound 449]
6. CCOC(=O)N1CCC(N2CCC3(CC2)CN(C2CCC(=O)CC2)c2ccccc23)CC1 [compound 472]

Marked response:
1. 25 to 100%
2. < 25%
3. 25 to 100%
4. 25 to 100%
5. 25 to 100%
6. 25 to 100%

These measurements were taken from patent US7786141B2.
